targetEntity: murine MAdCAM-1 (MAdCAM-1/mCk fusion protein); α4β7-bearing HUT 78 cells (Homo sapiens, UniProt P13612+P26010)
Construct: host or cells: HUT 78 cells (endogenous α4β7); The MAdCAM-1/mCk partner was made in house in baculovirus-infected Sf9 insect cells, used as neat supernatant and captured by rat anti-mCk antibody
experimentDescription: Adhesion of HUT 78 cells to MAdCAM-1/mCk fusion protein bound via capture antibody
Assay type: cell-based
appliedConditions: 500 μM compound; HUT 78 cells, Mn2+ activated
Square brackets hold non-standard residues; d marks the D form. Ends that are not written are not given here. NMeL = CN[C@@H](CC(C)C)C(=O)O
endpoint: % Adhesion Inhibition 500 μM (%)

[[record]]
substance = "Ac-His-Trp-Arg-Gly-Leu-Asp-Thr-Ser-Leu-Gly-Ser-Val (Ac-HWRGLDTSLGSV; not fully specified (C-terminus); printed as Ac-His-Trp-Arg-Gly-Leu-Asp-Thr-Ser-Leu-Gly-Ser-Val) [Example 61]"
valueunit = "%"
measurement = 71

[[record]]
substance = "Ac-Leu-Asp-Thr-Ser-Leu (Ac-LDTSL; not fully specified (C-terminus); printed as Ac-Leu-Asp-Thr-Ser-Leu) [Example 58]"
valueunit = "%"
measurement = 71

[[record]]
substance = "NH2-His-Trp-Arg-Gly-Leu-Asp-Thr-Ser-Leu-Gly-Ser-Val (H-HWRGLDTSLGSV; not fully specified (C-terminus); printed as NH2-His-Trp-Arg-Gly-Leu-Asp-Thr-Ser-Leu-Gly-Ser-Val) [Example 56]"
valueunit = "%"
measurement = 80

[[record]]
substance = "NH2-Arg-Val-His-Trp-Arg-Gly-Leu-Asp-Thr-Ser-Leu-Gly-Ser-Val-Gln (H-RVHWRGLDTSLGSVQ; not fully specified (C-terminus); printed as NH2-Arg-Val-His-Trp-Arg-Gly-Leu-Asp-Thr-Ser-Leu-Gly-Ser-Val-Gln) [Example 57]"
valueunit = "%"
measurement = 90

[[record]]
substance = "MeLeu-Leu-Asp-Thr-Ser-Leu ([NMeL]LDTSL) [Example 27]"
valueunit = "%"
measurement = 54

